Here, each record is paired with measured Number of metabolites detected data.
test system: hamster hepatocytes; assay: Metabolite profiling by LC-MS in hepatocytes; details: hamster hepatocytes
Reply briefly: the number, and no unit.

Check out these entries, answers already filled in.
>>> recorded_measurement("CCCCCCCCCCCCCCCCCCOCCOCCOCCO [C18EO3]")
4
>>> recorded_measurement("CCCCCCCCCCCCCCCCOCCOCCOCCOCCOCCOCCOCCOCCO [C16EO8]")
32
>>> recorded_measurement("CCCCCCCCCCOCCOCCOCCOCCOCCO [C10EO5]")
28

Any idea what its Number of metabolites detected is? The compound is CCCCCCCCOCCOCCOCCOCCO [C8EO4]
22

---

test system: human hepatocytes; test: Metabolite profiling by LC-MS in hepatocytes; details: human hepatocytes
Number of metabolites detected values for the compounds below.
Please respond with just the number, no unit label.

Consider the reported Number of metabolites detected for these compounds:
>>> recorded_measurement("CCCCCCCCCCOCCOCCOCCOCCOCCO")
28
>>> recorded_measurement("CCCCCCCCCCCCCCCCCCOCCOCCOCCO")
9
>>> recorded_measurement("CCCCCCCCCCCCCCCCOCCOCCOCCOCCOCCOCCOCCOCCO")
32
>>> recorded_measurement("CCCCCCCCOCCOCCOCCOCCO")
21

Give Number of metabolites detected (human hepatocytes) of the following compound: "CCCCCCCCCCCCOCCOCCOCCOCCO"
28

---

assay: Metabolic stability in cryopreserved hepatocytes (disappearance, half-life, CLint); conditions: Syrian, hamster, pooled cryopreserved hepatocytes, pH 7.4
readout.type: half-life at 1 µM (min)
Numeric answer only, unit min assumed.

Below are worked cases with known answers.
>>> recorded_measurement("CCCCCCCCOCCOCCOCCOCCO")
4.3
>>> recorded_measurement("CCCCCCCCCCCCOCCOCCOCCOCCO")
789
>>> recorded_measurement("CCCCCCCCCCCCCCCCOCCOCCOCCOCCOCCOCCOCCOCCO")
27

Below: the item to evaluate.
State the recorded half-life at 1 µM for this entry: "CCCCCCCCCCOCCOCCOCCOCCOCCO"
4.5

---

Attribute: Number of metabolites detected
system: rat hepatocytes; assay: Metabolite profiling by LC-MS in hepatocytes; settings: rat hepatocytes
No unit in the answer, please; the number alone is enough.

Please review the following examples before continuing.
>>> recorded_measurement("CCCCCCCCOCCOCCOCCOCCO [C8EO4]")
20
>>> recorded_measurement("CCCCCCCCCCOCCOCCOCCOCCOCCO [C10EO5]")
28
>>> recorded_measurement("CCCCCCCCCCCCCCCCOCCOCCOCCOCCOCCOCCOCCOCCO [C16EO8]")
32

Which Number of metabolites detected reading was recorded for the compound CCCCCCCCCCCCCCCCCCOCCOCCOCCO [C18EO3] ?
4

---

assay: Metabolic stability in cryopreserved hepatocytes (disappearance, half-life, CLint); conditions: human, pooled cryopreserved hepatocytes, pH 7.4
readout.type: half-life at 10 µM (min)
Only the number, expressed in min, is required.

>>> recorded_measurement("CCCCCCCCOCCOCCOCCOCCO [C8EO4]")
12

// lookup half-life at 10 µM for CCCCCCCCCCCCCCCCOCCOCCOCCOCCOCCOCCOCCOCCO [C16EO8]
85

What value of measured half-life at 10 µM is listed for CCCCCCCCCCCCOCCOCCOCCOCCO [C12EO4] ?
15

Report half-life at 10 µM for CCCCCCCCCCOCCOCCOCCOCCOCCO [C10EO5] please.
4.9
